# measurement.protocol: protein stability index of a GFP-peptide fusion (GPS, HEK-293T) (PSI 1-6); higher = more stable;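 also: 24-mer peptide tiles fused after GFP, lentivirally expressed, FACS-sorted into six equal bins by GFP/DsRed ratio, decoded by Illumina sequencing, PSI is the read-weighted mean bin number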
# experimental.parameters: treatment: DMSO; c terminus: a fixed tail appended
assay.readout: protein stability index

Some entries whose results are on file:
FLSFSMYQSFVQFLQYYYQSGCLY [TMEM120A]
3.02
VQEDLEAEFQSLFSLLEELKEGML [FSD1]
2.99
GAVLALVAIFIMSLNKRHSSGDGN [MFSD9]
3
NFAVQHRYLFEEDNLLRSTQKLSH [MATN2]
2.97

Consider the record given below.
Ask | Return protein stability index (reported value) for this sequence: SSVEDLKAKFCSTVANDVMLRTGL [NETO1]
Reply | 2.97

* * *

# measurement.protocol: protein stability index of a GFP-peptide fusion (GPS, HEK-293T) (PSI 1-6); higher = more stable
# experimental.parameters: treatment: DMSO; c terminus: a fixed tail appended
assay.readout: protein stability index
Form rule: numeric answer, no unit written next to it.

Some entries whose results are on file:
DEDELRKSLSELVDDKFGTGTKKV [PSD2]
5.2
IVETVCIVWFSFEFVVRCFACPSQ [KCNA4]
3.04
YFKEAELKDLLLQVGRGLRYIHSM [WEE1]
2.48
EGQDLQHISNQKMPTGPPEDRLSL [DRICH1]
5.11
LESYEDIHGTLHLERLAYLHARLR [PRAME]
2.41

Ask | Return protein stability index (reported value) for this sequence: YDTTLALGHAAAFSDDCDLPSAQD [GLT8D2]
Reply | 5.33

Ask | Return protein stability index (reported value) for this sequence: SIKGSSGLGGGSSRTSCRLSGGLG [KRT17]
Reply | 3.39

Ask | Return protein stability index (reported value) for this sequence: DVDLLDSKVIEILDSQTEIYQYVQ [DLC1]
Reply | 3.41

Ask | Return protein stability index (reported value) for this sequence: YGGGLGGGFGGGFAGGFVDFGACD [KRT13]
Reply | 2.39

Ask | Return protein stability index (reported value) for this sequence: MSTNTVGLGLPMSRSQNTDMVQKS [CLINT1]
Reply | 4.59

* * *

# measurement.protocol: protein stability index of a GFP-peptide fusion (GPS, HEK-293T) (PSI 1-6); higher = more stable
# experimental.parameters: treatment: MLN4924 1 uM, 8 h; c terminus: a fixed tail appended
assay.readout: protein stability index
Form rule: numeric answer, no unit written next to it.

Some entries whose results are on file:
ETIPLTAEKLCIYTDNSIRPEELL [CCND1]
3.94
CVDLTITNLLEGAVAFMPEDITKG [AUP1]
2.57
LSPLRAASDPLLSSVSPAVSKASS [TFE3]
4.68
KQGQCTKGDKCKFSHDLTLERKCE [ZC3H15]
4.6

Consider the record given below.
Ask | Return protein stability index (reported value) for this sequence: EFLWGPRAHAEIRKMSLLKFLAKV [MAGEA10]
Reply | 2.66

* * *

# measurement.protocol: protein stability index of a GFP-peptide fusion (GPS, HEK-293T) (PSI 1-6); higher = more stable
# experimental.parameters: treatment: MLN4924 1 uM, 8 h; c terminus: a fixed tail appended
Classify by measured protein stability index: Criterion met if it is equal to or exceeds 3, Criterion not met if it is smaller.

DGAGKTPTLGGGFHVNLGKESRAQ [BRF1]
Criterion met

Ask | Form field: protein stability index at least 3? Entry: GQQDLFRVLKAYTLYRPEEGYCQA [TBC1D10A]
Reply | Criterion not met

Ask | Form field: protein stability index at least 3? Entry: QNRYLDGMVRAHGVRVSVPCPSTT [BET1L]
Reply | Criterion met

Ask | Form field: protein stability index at least 3? Entry: TKQRIQDQKVPYIFRDNQWVGFDD [CHIT1]
Reply | Criterion met

Ask | Form field: protein stability index at least 3? Entry: KKFELVPSPPTSPPWGLGPGAGDP [MYCL]
Reply | Criterion met
